From: the RNAGym collection of RNA variant scans (doi:10.7554/elife.90254)

B1: OR4K15 (parent)
chain: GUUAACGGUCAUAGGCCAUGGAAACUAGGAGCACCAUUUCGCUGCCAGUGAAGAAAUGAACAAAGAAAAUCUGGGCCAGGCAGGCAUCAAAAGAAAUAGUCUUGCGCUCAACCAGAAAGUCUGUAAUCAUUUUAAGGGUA

Variants of: B1
ASSAY_NOTES: self-cleavage, relative activity (ratio to wild type); higher = more cleavage; in vitro, sequencing; the parent is a self-cleaving ribozyme
// bucketize self-cleavage: bottom range (below 0.6), center range (0.6 to below 1), top range (1 or more)

>  <MUTANT_ID>
C85A

>  <ASSIGNED_LABEL>
top range

$$$$
>  <MUTANT_ID>
U103C A135G

>  <ASSIGNED_LABEL>
center range

$$$$
>  <MUTANT_ID>
A18C A22G

>  <ASSIGNED_LABEL>
top range

$$$$
>  <MUTANT_ID>
C105U U122A

>  <ASSIGNED_LABEL>
bottom range

$$$$

**Query** Could you place A30G U49G in its proper category? Many thanks.
**Result** top range

**Query** Could you place U120C U127C in its proper category? Many thanks.
**Result** bottom range

**Query** Could you place U38C U102C in its proper category? Many thanks.
**Result** top range

**Query** Could you place A86G U97A in its proper category? Many thanks.
**Result** center range

**Query** Could you place G7A A114U in its proper category? Many thanks.
**Result** bottom range

**Query** Could you place U120C U131C in its proper category? Many thanks.
**Result** center range

**Query** Could you place A68G A86G in its proper category? Many thanks.
**Result** top range

**Query** Could you place C32U C45G in its proper category? Many thanks.
**Result** top range

**Query** Could you place A22G U39C in its proper category? Many thanks.
**Result** top range

**Query** Could you place G48A A92G in its proper category? Many thanks.
**Result** top range

**Query** Could you place A4G A134G in its proper category? Many thanks.
**Result** center range

**Query** Could you place A24G A82G in its proper category? Many thanks.
**Result** center range

**Query** Could you place U49C A129G in its proper category? Many thanks.
**Result** top range

**Query** Could you place U19C A66G in its proper category? Many thanks.
**Result** top range
